Molecular target: CD137 expressed on the cell surface of HT1080_4-1BB cells (human, UniProt Q07011 24-255); further: test concentration or dose not given here
Sequence (Q07011 24-255): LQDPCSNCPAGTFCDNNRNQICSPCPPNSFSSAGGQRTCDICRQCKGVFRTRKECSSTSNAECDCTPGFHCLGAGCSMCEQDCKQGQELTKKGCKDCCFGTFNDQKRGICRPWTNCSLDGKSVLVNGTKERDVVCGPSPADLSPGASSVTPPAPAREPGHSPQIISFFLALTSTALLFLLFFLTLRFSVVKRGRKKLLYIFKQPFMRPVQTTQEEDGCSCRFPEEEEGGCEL
Test: cell-based or functional assay
Measured attribute: Functional assay Cross-linked by F(ab′)2 fragment IL-8 (abs. corr.)

{"Binder": "P018.S.14.A.G03 (antibody, V domains shown, V regions on human Ig constant parts; also called AB137_11) VH: QSLEESGGRLVTPGTPLTLTCTVSGIDLSSYHMCWVRQAPGKGLEYIGYIAYGGNTYYANWAKGRFTISKTSTTVDLRITSPTTEDTATYFCARGYSEDSYWGLWGPGTLVTVSS VL: AYDMTQTPASVEAAVGGTVTIKCQASQNIENYLAWYQQKPGQPPKLLIYDTSKLTSGVPSRFSGSGSGTDFTLTISGVQSDDAATYYCQQDYGIIFVDNIFGGGTEVVVK", "Number": 1.14}
{"Binder": "P018.S.14.A.H01 (antibody, V domains shown, V regions on human Ig constant parts; also called AB137_12) VH: QSVEESGGRLVTPGTPLTLTCTVSGFSLSDYYMTWVRQAPGKGLEYIGIMSGSGSTYYASWAKGRFTISKTSSTTLELKITSPTTEDTAIYFCARDGDYAGWGYATGAFDPWGPGTLVTVSS VL: AAVLTQTPSPVSAAVGGTVTISCQASQSVVGNSLLSWFQKKPGQPPKLLIYSASSLASGVPSRFKGSGSGTQFTLTISDLESDDAATYYCTGRYNSDTDTFVFGGGTEVVVK", "Number": 2.19}
{"Binder": "P018.S.13.A.A06 (antibody, V domains shown, V regions on human Ig constant parts; also called AB137_5) VH: QSVEESGGRLVTPGTPLTLTCTASGFTISDFHVTWVRQAPGKGLEWIGTIITSASTTAYATWARGRFTISKSSTTVNLKIVSPTTEDTATYFCARSTYTDTSGYYFDFWGQGTLVTVSS VL: AQVLTQTASPVSAAVGGTVIINCQSSQSIYNGNRLSWYQQKPGQPPKLLIYSASTLASGVSSRFKGSGSGTQFTLAISDVQSDDAATYYCLGSYDCDSADCFAFGGGTEVVVE", "Number": 1.71}
